// provenance: patent US20250179059A1

System: human SKM-1 acute myeloid leukemia cells
procedureText: SKM-1 antiproliferation cell-based assay (ATPlite)
testContext: Homo sapiens, SKM-1, 96 h, SKM-1 antiproliferation assay, 4 days, Table C2
Parameter GI50: see the listing below.

## Input Query the reported GI50 for human SKM-1 acute myeloid leukemia cells; item: CC(=O)Nc1cc(-c2cccc(-c3ccc(N4CCN(C)C4=O)c(Cl)c3)c2O)cc(N2CCNCC2)n1 [Example 383]
## Output 0.3 to 30 nM

## Input Query the reported GI50 for human SKM-1 acute myeloid leukemia cells; item: CC(=O)Nc1ccc(-c2cccc(-c3cncc(N4CCN[C@H](C)C4)c3)c2O)cc1Cl [Example 259]
## Output 30 to 300 nM

## Input Query the reported GI50 for human SKM-1 acute myeloid leukemia cells; item: Cn1ccn(-c2ccc(-c3cc(F)cc(-c4ccnc(N5CCC(N6CCC(F)CC6)C5)c4)c3O)cc2Cl)c1=O (stereo not shown) [Example 701]
## Output 30 to 300 nM

## Input Query the reported GI50 for human SKM-1 acute myeloid leukemia cells; item: Cc1cc(-c2ccnc(N3CC[C@H](N)C3)c2)c(O)c(-c2ccc(-n3ccn(C)c3=O)c(Cl)c2)c1 [Example 498]
## Output 0.3 to 30 nM
